I'd appreciate it if you could supply Kp values for the items below.
Assay: Brain to blood partition coefficient of the compound
Format: physicochemical, tissue-based
Conditions: read-out: logBB (converted)
# answer = number (no unit)

(Q) Query: Kp; subject: `Cc1cc(C)n(Cc2ccc(C(=O)Nc3ccc4nc[nH]c4c3)s2)n1`
(A) 0.158

(Q) What do we get for `Cc1cc(C)n(Cc2ccc(C(=O)Nc3ccc(Cl)cc3C(=O)NCCCCO)o2)n1` ?
(A) 0.17

(Q) Quick one: `COC(=O)c1cc(F)ccc1NC(=O)c1ccc(Cn2nc(C)cc2C)o1`
(A) 0.158

(Q) What about this compound? `Cc1cc(C)n(Cc2ccc(C(=O)Nc3ccc4cccnc4c3)s2)n1`
(A) 0.316

(Q) Now consider `Cc1cc(C)n(Cc2ccc(C(=O)Nc3ccc4[nH]c(=O)[nH]c4c3)s2)n1` and answer again.
(A) 0.0251

(Q) Would you kindly repeat that for `Cc1cc(C)n(Cc2ccc(C(=O)Nc3ccc(Br)cc3C)s2)n1` ?
(A) 1.26

(Q) Consider next the compound `Cc1cc(C)n(Cc2ccc(C(=O)Nc3ccc(F)cc3Cl)o2)n1` in the same way.
(A) 0.794

(Q) Repeat for the following compound: `Cc1cc(C)n(Cc2ccc(C(=O)Nc3ccc(-c4ccccc4)cc3)o2)n1`
(A) 0.398

(Q) Also, `Cc1cc(C)n(Cc2ccc(C(=O)Nc3ccc(F)c(Cl)c3)s2)n1` please.
(A) 1.26

(Q) Another compound: `Cc1cc(Cl)ccc1NC(=O)c1ccc(Cn2nc(C(F)(F)F)cc2C(F)(F)F)o1`
(A) 2.51

(Q) Could you do the same for `Cc1cc(NC(=O)c2ccc(Cn3nc(C(F)(F)F)cc3C(F)(F)F)o2)ccc1F` , please?
(A) 2.51

(Q) Please answer likewise for `Cc1cc(C)n(Cc2ccc(C(=O)Nc3ccc(Cl)cc3C)o2)n1`
(A) 0.724

(Q) Lookup `Cc1cc(Br)ccc1NC(=O)c1ccco1`
(A) 1.41

(Q) What do you get for `CCc1cc(Br)ccc1NC(=O)c1ccc(Cn2nc(C)cc2C)o1` ?
(A) 0.631

(Q) Another compound to look at: `Cc1cc(C)n(Cc2ccc(C(=O)Nc3cccnc3)o2)n1`
(A) 0.251

(Q) Note, next up: `Cc1cc(C(F)(F)F)n(Cc2ccc(C(=O)Nc3ccc(Br)cc3C)o2)n1`
(A) 1.58

(Q) Subsequent entry: `COc1cc(NC(=O)c2ccc(Cn3nc(C)cc3C)s2)cc(OC)c1`
(A) 0.398

(Q) Next: `Cc1cc(F)ccc1NC(=O)c1ccc(Cn2nc(C(F)(F)F)cc2C(F)(F)F)o1`
(A) 2.51

(Q) Field entry: `Cc1cc(C)n(Cc2ccc(C(=O)Nc3ccccc3-c3ccccc3)o2)n1`
(A) 0.398

(Q) Try the compound `Cc1cc(C)n(Cc2ccc(C(=O)Nc3ccccc3)o2)n1`
(A) 0.398

(Q) Next record, please: `Cc1cc(C)n(Cc2ccc(C(=O)Nc3ccc(Cl)cc3Cl)o2)n1`
(A) 1

(Q) Try the compound `O=C(Nc1cc(Cl)cc(Cl)c1)c1ccc(Cn2nc(C(F)(F)F)cc2C(F)(F)F)o1`
(A) 3.98

(Q) Okay, and `Cc1cc(C)n(Cc2ccc(C(=O)Nc3ccc(Cl)cc3C(=O)NCc3ccccc3)o2)n1` ?
(A) 0.166
